Hey, just so you know, these numbers are from patent US20070128217A1.

tested on: antibodies in sera from SARS patients (sera 1a, 1b, 2, 6, 37, 62, London, SARS-yellow, SARS-green); type: binding, human
Exam item: assign Fulfilled to entries whose Binding of serum SARS-yellow to linear peptides of protein X4 of SARS-CoV Urbani is below 0.6 and Not fulfilled to entries at or above 0.6. Note that a value of exactly 0.6 receives Not fulfilled.

INPUT_SEQUENCE: LKEPCPSGTYEGNSP
CLASS: Fulfilled

INPUT_SEQUENCE: RSVSPKLFIRQEEVQ
CLASS: Fulfilled

INPUT_SEQUENCE: PKLFIRQEEVQQELY
CLASS: Not fulfilled

INPUT_SEQUENCE: IVFTSCELYHYQECV
CLASS: Fulfilled

INPUT_SEQUENCE: IRQEEVQQELYSPLF
CLASS: Not fulfilled

INPUT_SEQUENCE: CADGTRHTYQLRARS
CLASS: Not fulfilled

INPUT_SEQUENCE: QLRARSVSPKLFIRQ
CLASS: Fulfilled

INPUT_SEQUENCE: ACADGTRHTYQLRAR
CLASS: Fulfilled

INPUT_SEQUENCE: STHFAFACADGTRHT
CLASS: Fulfilled

INPUT_SEQUENCE: SVSPKLFIRQEEVQQ
CLASS: Fulfilled

INPUT_SEQUENCE: THFAFACADGTRHTY
CLASS: Fulfilled

----------
Catalogue of Binding of serum SARS-yellow to looped/cyclic peptide (PEPSCAN-ELISA) readings, one per entry.
test system: antibodies in sera from SARS patients (sera 1a, 1b, 2, 6, 37, 62, London, SARS-yellow, SARS-green); assay type: binding, human
QUANTITY: Binding of serum SARS-yellow to looped/cyclic peptide (PEPSCAN-ELISA)

INPUT_SEQUENCE: QFLYLYALIYFLQCI
NUMERIC_RESULT: 0.3
--
INPUT_SEQUENCE: CRIIMRCWLCWKCKS
NUMERIC_RESULT: 0.4
--
INPUT_SEQUENCE: AGMEAQFLYLYALIY
NUMERIC_RESULT: 0.3
--
INPUT_SEQUENCE: SKNPLLYDANYFVCW
NUMERIC_RESULT: 0.5
--
INPUT_SEQUENCE: NKRWQLALYKGFQFI
NUMERIC_RESULT: 0.5

----------
tested on: antibodies in sera from SARS patients (sera 1a, 1b, 2, 6, 37, 62, London, SARS-yellow, SARS-green); type: binding, human
Label scheme for Binding of serum SARS-green to linear peptides of protein N of SARS-CoV Urbani: lower than 0.4 is Not satisfied, 0.4 and above is Satisfied.

INPUT_SEQUENCE: TPSGTWLTYHGAIKL
CLASS: Not satisfied
//
INPUT_SEQUENCE: KTDEAQPLPQRQKKQ
CLASS: Satisfied
//
INPUT_SEQUENCE: AIKLDDKDPQFKDNV
CLASS: Satisfied
//
INPUT_SEQUENCE: EGALNTPKDHIGTRN
CLASS: Not satisfied
//
INPUT_SEQUENCE: FFGMSRIGMEVTPSG
CLASS: Not satisfied
//
INPUT_SEQUENCE: LTYHGAIKLDDKDPQ
CLASS: Not satisfied
//
INPUT_SEQUENCE: HGKEELRFPRGQGVP
CLASS: Satisfied
//
INPUT_SEQUENCE: GTRNPNNNAATVLQL
CLASS: Not satisfied
